Attribution: PubChem BioAssay (Tox21)

# system: Beta-2 adrenergic receptor (Homo sapiens) (UniProt P07550)
# Sequence (P07550 whole entry, looked up): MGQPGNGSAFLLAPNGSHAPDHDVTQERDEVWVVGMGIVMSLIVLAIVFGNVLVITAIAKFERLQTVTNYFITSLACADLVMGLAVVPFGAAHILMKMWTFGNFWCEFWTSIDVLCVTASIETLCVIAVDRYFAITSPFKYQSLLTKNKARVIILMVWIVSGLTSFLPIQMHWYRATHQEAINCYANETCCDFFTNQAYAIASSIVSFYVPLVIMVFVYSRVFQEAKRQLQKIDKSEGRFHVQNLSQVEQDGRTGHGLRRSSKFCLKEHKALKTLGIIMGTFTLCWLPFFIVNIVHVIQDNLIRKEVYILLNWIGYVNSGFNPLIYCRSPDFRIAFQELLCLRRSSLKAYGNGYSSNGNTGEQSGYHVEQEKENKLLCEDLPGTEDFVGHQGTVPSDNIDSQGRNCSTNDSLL
# assay_procedure: Adrenergic beta2 receptor (ADRB2) small molecule antagonists, cell-based qHTS assay (AID 1963592); further: on the % scale 0 is the no-effect control and ±100 the full control effect; nearly all actives have a fitted effect of over 50% in size
# condition_notes: CHO-ADRB2 cells, isoproterenol-stimulated cAMP HTRF ratio, 0.5 h; series mostly up to 92.4 µM
Inconclusive results are not listed. Activity calls are given as the source filed them. The call rests on the fitted dose curve.

smiles_data | outcome
O=C(O)c1cc(Oc2ccc(C(F)(F)F)cc2Cl)ccc1[N+](=O)[O-] | inactive
CC(=[OH+])/C=C(/C)[O-].CC(=[OH+])/C=C(\C)[O-].CC(=[OH+])/C=C(\C)[O-].[Al] | inactive
CCCCN(CC)C(=O)SCCC | inactive
O=C(O)c1ccc(=O)[nH]c1 | inactive

----------
# assay_procedure: Nuclear factor erythroid 2-related factor 2/antioxidant responsive element (Nrf2/ARE) small molecule agonists: luciferase reporter gene qHTS assay in human keratinocytes (AID 1919969); further: nearly all actives have a fitted effect of over 35% in size
# condition_notes: KeratinoSens HaCaT ARE-luciferase, luminescence, 24 h; series mostly up to 92.4 µM
Results filed as inconclusive are left out. Active and inactive are the calls of the source. Calls follow the shape of the full dose curve.
Field 'call' accepts class 1 = active, class 0 = inactive

Name the outcome recorded for CCCCOC(=O)c1ccccc1C(=O)O in the assay.
class 0

Name the outcome recorded for CC(C)OC(=O)Nc1ccccc1 in the assay.
class 0

Name the outcome recorded for CCNCC in the assay.
class 0

Name the outcome recorded for [O-][Cl+2]([O-])O in the assay.
class 0

Name the outcome recorded for CN(C)NC(=O)CCC(=O)O in the assay.
class 0

Name the outcome recorded for O=C(O)COc1ccccc1 in the assay.
class 0

Name the outcome recorded for CN1C(=O)NC(=O)C(C)(C2=CCCCC2)C1=O (configuration not stated) in the assay.
class 0

Name the outcome recorded for N#Cc1ccccc1Cl in the assay.
class 0

Name the outcome recorded for O=c1[nH]c2ccccc2c(=O)o1 in the assay.
class 0

Name the outcome recorded for CS(=O)(=O)NC(=O)c1cc(Oc2ccc(C(F)(F)F)cc2Cl)ccc1[N+](=O)[O-] in the assay.
class 0

Name the outcome recorded for CCCC(C)(COC(N)=O)COC(=O)NC(C)C (configuration not stated) in the assay.
class 0

Name the outcome recorded for OC(O)C(Cl)(Cl)Cl in the assay.
class 0

Name the outcome recorded for O=c1[nH]c(=O)[nH]c(=O)[nH]1 in the assay.
class 0

Name the outcome recorded for C1CCC(NC2CCCCC2)CC1 in the assay.
class 0

Name the outcome recorded for CCOC(=O)N(C)N=O in the assay.
class 0

Name the outcome recorded for C1CN2CCC1CC2 in the assay.
class 0

Name the outcome recorded for O=C(CBr)c1ccc(O)cc1 in the assay.
class 1

Name the outcome recorded for O=[N+]([O-])c1ccc([As](=O)(O)O)cc1 in the assay.
class 0

Name the outcome recorded for Cl/C=C/Cl in the assay.
class 0

Name the outcome recorded for C=C(C)C(=O)OCC(CC)CCCC (configuration not stated) in the assay.
class 0

Name the outcome recorded for O=C(O)C(F)(F)C(F)(F)C(F)(F)C(F)(F)C(F)(F)C(F)(F)C(F)(F)C(F)(F)C(F)(F)C(F)(F)F in the assay.
class 0

Name the outcome recorded for FC(Cl)(Cl)Cl in the assay.
class 0

Name the outcome recorded for CC(C)[N+](C)(CCC(C(N)=O)(c1ccccc1)c1ccccc1)C(C)C in the assay.
class 0

Name the outcome recorded for CC(C)C1(C)N=C(c2nc3ccccc3cc2C(=O)O)NC1=O (configuration not stated) in the assay.
class 0

Name the outcome recorded for CC1(C)CC(=O)CC(C)(C)N1[O] in the assay.
class 0

Name the outcome recorded for C[C@]12CCC(=O)C(O)=C1CC[C@@H]1[C@@H]2CC[C@]2(C)C(=O)CC[C@@H]12 in the assay.
class 0

Name the outcome recorded for C=CC=O in the assay.
class 0

Name the outcome recorded for NNC(=S)NN in the assay.
class 1

Name the outcome recorded for Nc1cc(Cl)cc(C(=O)O)c1Cl in the assay.
class 0

Name the outcome recorded for ClC1(Cl)C2(Cl)C3(Cl)C4(Cl)C(Cl)(Cl)C5(Cl)C3(Cl)C1(Cl)C5(Cl)C24Cl (configuration not stated) in the assay.
class 0

Name the outcome recorded for O=C(NC(=O)c1c(F)cccc1F)Nc1ccc(Cl)cc1 in the assay.
class 0

Name the outcome recorded for O=S(=O)(O)OOS(=O)(=O)O in the assay.
class 0

Name the outcome recorded for N#CC(Br)Br in the assay.
class 0

Name the outcome recorded for Cc1ccc2cc(C)ccc2c1 in the assay.
class 0

Name the outcome recorded for COc1cc(OC)nc(Sc2cccc(Cl)c2C(=O)O)n1 in the assay.
class 0

Name the outcome recorded for O=c1[nH]c(=O)n(Cl)c(=O)n1Cl in the assay.
class 0

Name the outcome recorded for Nc1cccc(Cl)c1 in the assay.
class 0

Name the outcome recorded for CCCOC(=O)c1cncn1C(C)c1ccccc1 (configuration not stated) in the assay.
class 0

Name the outcome recorded for ClCc1ccccn1 in the assay.
class 0

Name the outcome recorded for CCCC[n+]1ccc(C)cc1 in the assay.
class 0

Name the outcome recorded for O=[N+]([O-])O[C@H]1CO[C@H]2[C@@H]1OC[C@H]2O[N+](=O)[O-] in the assay.
class 0

Name the outcome recorded for CCCCC(CC)CO[N+](=O)[O-] (configuration not stated) in the assay.
class 0

Name the outcome recorded for BrCc1ccc(Br)cc1 in the assay.
class 0

Name the outcome recorded for CCC(C)c1ccc(O)cc1 (configuration not stated) in the assay.
class 0

Name the outcome recorded for C[C@]12CC[C@H](O)CC1=CC[C@@H]1[C@@H]2CC[C@]2(C)C(=O)CC[C@@H]12 in the assay.
class 0

Name the outcome recorded for CN(C)N=O in the assay.
class 0

Name the outcome recorded for CN(C)P(=O)(N(C)C)N(C)C in the assay.
class 0

----------
# system: D(2) dopamine receptor (Homo sapiens)
# assay_procedure: Dopamine D2 receptor (DRD2) small molecule antagonists, cell-based qHTS assay (AID 1963595)
# condition_notes: HEK293-DRD2 cAMP HTRF antagonist mode; series mostly up to 92.4 µM
Results filed as inconclusive are left out. Active and inactive are the calls of the source. The call rests on the fitted dose curve; in most records, active means well fitted inhibition curve with a large enough effect in the signal ratio in the repeat runs, with a control signal flat; inconclusive means weak or mixed curves, or effect the other way; inactive means flat fitted curve, though single readings scatter; the % refers to the signal ratio.
Field 'call' accepts y (active), n (inactive)

Name the outcome recorded for Cl[C@H]1OCCO[C@@H]1Cl in the assay.
n

Name the outcome recorded for O=Cc1ccco1 in the assay.
n

Name the outcome recorded for CCCCCCCCCCCCOS(=O)(=O)O in the assay.
n

Name the outcome recorded for CC(C)NC(=O)N1CC(=O)N(c2cc(Cl)cc(Cl)c2)C1=O in the assay.
n

Name the outcome recorded for CN(C)CCO in the assay.
n

Name the outcome recorded for Nc1ccc([N+](=O)[O-])cc1N in the assay.
n

Name the outcome recorded for CC(C)(O)C(=O)Nc1ccc([N+](=O)[O-])c(C(F)(F)F)c1 in the assay.
n

Name the outcome recorded for c1ccc(N=Nc2ccccc2)cc1 in the assay.
n

Name the outcome recorded for C(CCOCC1CO1)COCC1CO1 (configuration not stated) in the assay.
n

Name the outcome recorded for CCC(C)c1ccc(O)cc1 (configuration not stated) in the assay.
n

Name the outcome recorded for CCOC(=S)S in the assay.
n

Name the outcome recorded for O=C(O)C(Cl)(Cl)Br in the assay.
n

Name the outcome recorded for O=C(Cl)/C=C/C(=O)Cl in the assay.
n

Name the outcome recorded for O=S(=O)(O)OOS(=O)(=O)O in the assay.
n

Name the outcome recorded for ClCC1CO1 (configuration not stated) in the assay.
n

Name the outcome recorded for CC(=[OH+])/C=C(/C)[O-].CC(=[OH+])/C=C(\C)[O-].CC(=[OH+])/C=C(\C)[O-].[Fe] in the assay.
n

Name the outcome recorded for CC(C)(C)c1ccccc1O in the assay.
n

Name the outcome recorded for Nc1cccnc1 in the assay.
n

Name the outcome recorded for COC(=O)c1ccccc1C(=O)OC in the assay.
n

Name the outcome recorded for CC(C)=C[C@@H]1[C@@H](C(=O)OCc2coc(Cc3ccccc3)c2)C1(C)C in the assay.
n

Name the outcome recorded for C=CCc1cc(OC)c2c(c1)OCO2 in the assay.
n

Name the outcome recorded for Oc1cc(Cl)ccc1Oc1ccc(Cl)cc1Cl in the assay.
y

Name the outcome recorded for ClC(Cl)=C(c1ccc(Cl)cc1)c1ccc(Cl)cc1 in the assay.
n

Name the outcome recorded for CCOC(=O)C(c1c(O)c2ccccc2oc1=O)c1c(O)c2ccccc2oc1=O in the assay.
n

Name the outcome recorded for C[C@]12CCC(=O)C=C1CC[C@@H]1[C@@H]2CC[C@@]2(C)[C@H]1CC[C@]2(C)O in the assay.
n

Name the outcome recorded for COc1ccccc1OC in the assay.
n

Name the outcome recorded for CCC(C)n1c(=O)[nH]c(C)c(Br)c1=O (configuration not stated) in the assay.
n

----------
# assay_procedure: Nuclear factor erythroid 2-related factor 2/antioxidant responsive element (Nrf2/ARE) small molecule agonists: luciferase reporter gene qHTS assay in human keratinocytes (AID 1919969); further: nearly all actives have a fitted effect of over 35% in size
# condition_notes: KeratinoSens HaCaT ARE-luciferase, luminescence, 24 h; series mostly up to 92.4 µM
Inconclusive results are not listed. Active and inactive are the calls of the source. The call rests on the fitted dose curve.
Field 'call' accepts active, inactive

Name the outcome recorded for O=c1[nH]c2ccccc2n1C1CCN(CCCC(c2ccc(F)cc2)c2ccc(F)cc2)CC1 in the assay.
inactive

Name the outcome recorded for COS(=O)(=O)OC in the assay.
inactive

Name the outcome recorded for N#CC(c1ccccc1)c1ccccc1 in the assay.
inactive

Name the outcome recorded for O=[N+]([O-])c1ccccc1O in the assay.
inactive

Name the outcome recorded for ClCOCCl in the assay.
inactive

Name the outcome recorded for CC(=O)[C@H]1CC[C@H]2[C@@H]3CC[C@H]4C[C@](C)(O)CC[C@]4(C)[C@H]3CC[C@]12C in the assay.
inactive

Name the outcome recorded for COc1ccc(C(CN(C)C)C2(O)CCCCC2)cc1 (configuration not stated) in the assay.
inactive

Name the outcome recorded for CN1C(=O)CCS(=O)(=O)C1c1ccc(Cl)cc1 (configuration not stated) in the assay.
inactive

Name the outcome recorded for O=C(O)C(F)(F)C(F)(F)C(F)(F)C(F)(F)C(F)(F)C(F)(F)C(F)(F)F in the assay.
inactive

Name the outcome recorded for BrCCBr in the assay.
inactive

Name the outcome recorded for O=C/C=C/c1ccccc1 in the assay.
inactive

Name the outcome recorded for [N-]=[N+]=CC(=O)OC[C@H](N)C(=O)O in the assay.
inactive

Name the outcome recorded for c1ccc(NNc2ccccc2)cc1 in the assay.
active

Name the outcome recorded for NC1(c2ccccc2)CCCCC1 in the assay.
inactive

Name the outcome recorded for CC(C)OS(C)(=O)=O in the assay.
inactive

Name the outcome recorded for O=C(Cl)OCc1ccccc1 in the assay.
inactive

Name the outcome recorded for Clc1ccc(C(Cl)(Cl)Cl)c(Cl)c1 in the assay.
inactive

Name the outcome recorded for Cc1cc(O)ccc1Cl in the assay.
inactive

Name the outcome recorded for c1ccc2c(c1)Oc1ccccc1O2 in the assay.
inactive

Name the outcome recorded for CC(C)(C#N)N=NC(C)(C)C#N in the assay.
inactive

Name the outcome recorded for CCC12COCN1COC2 in the assay.
inactive

Name the outcome recorded for c1ccc(N2CCNCC2)cc1 in the assay.
inactive

Name the outcome recorded for CN(C)C(=O)Nc1cccc(C(F)(F)F)c1 in the assay.
inactive

Name the outcome recorded for Clc1ccc(C2(Cn3cncn3)OCCO2)c(Cl)c1 in the assay.
inactive

Name the outcome recorded for C=C(Cl)CCl in the assay.
inactive

Name the outcome recorded for O=C(O)C(Cl)Cl in the assay.
inactive

Name the outcome recorded for CCCCCCCCCCOC(=O)c1ccccc1C(=O)OCCCCCCCCCC in the assay.
inactive

Name the outcome recorded for Nn1cnnc1 in the assay.
inactive

Name the outcome recorded for Clc1ccc(C(c2ccccc2Cl)C(Cl)(Cl)Cl)cc1 (configuration not stated) in the assay.
inactive

Name the outcome recorded for O=C(NCc1cccnc1)Nc1ccc([N+](=O)[O-])cc1 in the assay.
inactive

Name the outcome recorded for C#CC(C)(C)NC(=O)c1cc(Cl)cc(Cl)c1 in the assay.
inactive

Name the outcome recorded for O=C(O)C1C2CCC(O2)C1C(=O)O (configuration not stated) in the assay.
inactive

Name the outcome recorded for Cc1ccc(C(=O)Cl)cc1 in the assay.
inactive

Name the outcome recorded for CCC(C)(C)c1ccc(O)cc1 in the assay.
inactive

Name the outcome recorded for ClC1=C(Cl)[C@]2(Cl)[C@@H]3[C@@H](Cl)[C@@H](Cl)C[C@@H]3[C@@]1(Cl)C2(Cl)Cl in the assay.
inactive

Name the outcome recorded for COP(=O)(CCC(=O)NCO)OC in the assay.
inactive

Name the outcome recorded for [O-][Cl+]O in the assay.
inactive

Name the outcome recorded for CC(C)(C)c1ccccc1O in the assay.
inactive

Name the outcome recorded for O=S(=O)(O)C(F)(F)C(F)(F)C(F)(F)C(F)(F)C(F)(F)C(F)(F)F in the assay.
inactive

Name the outcome recorded for CNC(=O)Oc1cccc2c1OC(C)(C)C2 in the assay.
inactive

Name the outcome recorded for C#CCOC(=O)/C=C(C)/C=C/CC(C)CCCC(C)C (configuration not stated) in the assay.
inactive

Name the outcome recorded for Cc1ccccc1CCl in the assay.
inactive
